Reference source for all entries: the nanobody polyreactivity screen of Harvey et al. (2022)

assay: yeast display, Sf9 membrane polyspecificity reagent, FACS + sequencing; frameworks hold sequencing errors
REPORTED PROPERTY: polyreactivity (PSR sort gate)

Consider the reported polyreactivity (PSR sort gate) for these sequences:
QVQLVESGGGLVQAGGSLRLSCAASGFTFIYYAMGWYRQAPGKERELVAAISKRGGSTYYADSVKGRFTISRDTAKNTVYLQMYSLKPEDTAVYYCAPAFGQRRYDYWGQGTQVTVSS : high polyreactivity
QDQHVESGGGLVQAGGSLRLSCAASGSTYRDNAMGWSRQAPGKERELVAAISVSGASTYYADSVKGRFTISRDNAKNTVYLQMNSLKPEDTAVYDCAKSLYQALSLSFFIFGYWGQGTQVTVSS : low polyreactivity
QVQLVESGGGLVQAGGSLRLSCAASGSTFNGYAMGWYRQAPGKERELVAAISKRGGSTYYADSVKGRFTISRDNAKNTVYLQMNSLKPEETAVYYCAARVGRTYTVVWWSHYNYWGQGTQVTVSS : high polyreactivity
QVQLVESGGGLVQAGGSLRLSCAASGRTLDVYAMGWYRQAPGKERELVADINWSGGRTYYADSVKGRFTISRDNAKNTVYLQMNSLIPEDTAVFYCAADLSWRQYYREYDYWGQGTQVTVSS : high polyreactivity
QVHLVESGGGLVQAGGSLRLSCAASGSTFAPNAMGWYRQAPGKERELVASIRRGGSTHYADSVKGRFTISRDNAKNSVYLQMNSLKPEDTAVYYCATDQDPCSWYRYDYWGQGTQVTVSS : low polyreactivity

Reported polyreactivity (PSR sort gate) of `QVQLVESGGGLVQAGGSLRLSCAASGLTFWSYAMGWYRQAPGKERELVAAISKRGGSTYYADSVKGRFTISRDNAKNTVYLQMNSLKPEDTAVYYCAARTFRALNKYYYWGQGTQVTVSS` : high polyreactivity

The sequence listed as `QVQLVESGGGLVQAGGSLRLSCAASGSIFNRNVMGWYRQAPGKERELVAAITWSGASTYYADSVKGRFTISRDNAKNTVYLQMNSLKPEDTAVYYCAARGPSRRRDGSDYWGQGTQVTVSS` has a reported polyreactivity (PSR sort gate) of high polyreactivity

Lab note: measured polyreactivity (PSR sort gate) of `QVQLVDSGGGLVQAGVSLRLSCPASGSIFRPNAMGWYRQAPGKERELVAAINTSDDSTYYADSVKGRFTISRDNAKNTVYLQMNSLIREDTAVYYCAAEYYAYAYGDDYDYWGQGTQVTVSS` was low polyreactivity

The value of polyreactivity (PSR sort gate) measured for the sequence `QVQLVESGGGLVQAGGSLRLSCAASGRIFNAYAMGWYRQAPGKERELVAAISSIGGRTYYADSVKGRFTISRDNAKNTDYLQMNSLKPEDTAVYYCAASRRSRQYRYDYWGQGTQVTVSS` turned out to be high polyreactivity

Record summary for `QVQLVESGGGLVQAGGSLRLSCAASGIIFWRYAMGWYRQAPGKERELVASISWSGGSTSYADSVKGRFTISRDNAKNTVYLQMNSLKPEDTSVYYCAAVYYYRRRYYYWGQGTQVTVSS` : reported polyreactivity (PSR sort gate) = high polyreactivity

Note to self: polyreactivity (PSR sort gate) recorded for `QVQLLESGGGLVQAGGSLRLSCAASGLIFWGYAMGWYRQAPGKERELVAAINATGGRTYYADSVKGRFTISRDNAKNTVYLQMNSLKPEDTAVYYCAAYSGFYDSYDYWGQGTQVTVSS` was low polyreactivity
